Biological target: NA transporter (Rattus norvegicus)
Construct: synaptosomes were freshly isolated from rat brain regions; from tissue; host or cells: rat hypothalamus synaptosomes (P2 fraction)
Sequence (Q9WTR4 1-597): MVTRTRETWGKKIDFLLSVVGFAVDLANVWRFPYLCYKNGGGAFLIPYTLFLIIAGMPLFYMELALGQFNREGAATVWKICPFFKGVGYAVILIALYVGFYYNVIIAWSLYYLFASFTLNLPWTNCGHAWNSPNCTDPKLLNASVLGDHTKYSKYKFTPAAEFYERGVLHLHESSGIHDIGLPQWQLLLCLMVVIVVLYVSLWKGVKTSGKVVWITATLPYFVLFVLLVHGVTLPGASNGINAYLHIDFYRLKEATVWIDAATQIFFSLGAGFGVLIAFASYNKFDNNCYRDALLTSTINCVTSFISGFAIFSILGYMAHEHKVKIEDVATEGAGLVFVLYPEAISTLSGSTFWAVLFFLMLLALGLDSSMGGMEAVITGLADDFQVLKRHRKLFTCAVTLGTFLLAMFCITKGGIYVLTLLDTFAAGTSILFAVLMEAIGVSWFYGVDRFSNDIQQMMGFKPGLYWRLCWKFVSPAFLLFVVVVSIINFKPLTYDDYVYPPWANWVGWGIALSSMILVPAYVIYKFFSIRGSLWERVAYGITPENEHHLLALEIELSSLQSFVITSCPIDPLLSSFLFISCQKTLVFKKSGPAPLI
Experiment: Noradrenaline reuptake inhibition (NA uptake inhibition) in rat brain synaptosomes
Format: biochemical
Conditions: test concentration of 10^−5 M; synaptosomes (P2 fraction) from the hypothalamus of male rat brains
MEASUREMENT NAME: inhibition at 10 µM (%)
Give the value in % but do not write % after it.

Entry under review: OC1(CCc2ccccc2)CCCCC1CN1CCCCCC1 (stereo not shown) . Reported inhibition at 10 µM? 70

Quick check: inhibition at 10 µM of OC1(c2cccc(Cl)c2Cl)CCCCCC1CN1CCCC1 (stereo not shown) ? 63

# query: inhibition at 10 µM of entry Cc1ccc(C2(O)CCCCC2CN2CCCCCC2)cc1 (stereo not shown) 64

Which inhibition at 10 µM value belongs to Cc1cc(C2(O)CCCCCC2CN2CCCCCC2)ccc1F (stereo not shown) ? 63
